Tested on: HeLa Kyoto;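 further: HeLa Kyoto cells arrested at G1/S by double thymidine block, proteins quantified by TMT10plex mass spectrometry in mild NP-40 versus SDS extracts, three biological replicates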
Test: solubility in G1/S (NP-40 vs SDS abundance) (log2 ratio); higher = more soluble
Conditions: cell cycle stage: G1/S
Hi, to clarify the labels: Met covers solubility in G1/S (log2) from 0.2 upward, Not met covers anything below 0.2.

Entry MSEVTRSLLQRWGASFRRGADFDSWGQLVEAIDEYQILARHLQKEAQAQHNNSEFTEEQKKTIGKIATCLELRSAALQSTQSQEEFKLEDLKKLEPILKNILTYNKEFPFDVQPVPLRRILAPGEEENLEFEEDEEEGGAGAGSPDSFPARVPGTLLPRLPSEPGMTLLTIRIEKIGLKDAGQCIDPYITVSVKDLNGIDLTPVQDTPVASRKEDTYVHFNVDIELQKHVEKLTKGAAIFFEFKHYKPKKRFTSTKCFAFMEMDEIKPGPIVIELYKKPTDFKRKKLQLLTKKPLYLHLHQTLHKE [AIDA] : is its solubility in G1/S (log2) no less than 0.2?
Met

Would you kindly repeat that for MGTPQKDVIIKSDAPDTLLLEKHADYIASYGSKKDDYEYCMSEYLRMSGIYWGLTVMDLMGQLHRMNREEILAFIKSCQHECGGISASIGHDPHLLYTLSAVQILTLYDSINVIDVNKVVEYVKGLQKEDGSFAGDIWGEIDTRFSFCAVATLALLGKLDAINVEKAIEFVLSCMNFDGGFGCRPGSESHAGQIYCCTGFLAITSQLHQVNSDLLGWWLCERQLPSGGLNGRPEKLPDVCYSWWVLASLKIIGRLHWIDREKLRNFILACQDEETGGFADRPGDMVDPFHTLFGIAGLSLLGEEQIKPVNPVFCMPEEVLQRVNVQPELVS [RABGGTB] ?
Not met

Would you kindly repeat that for MDPRKVNELRAFVKMCKQDPSVLHTEEMRFLREWVESMGGKVPPATQKAKSEENTKEEKPDSKKVEEDLKADEPSSEESDLEIDKEGVIEPDTDAPQEMGDENAEITEEMMDQANDKKVAAIEALNDGELQKAIDLFTDAIKLNPRLAILYAKRASVFVKLQKPNAAIRDCDRAIEINPDSAQPYKWRGKAHRLLGHWEEAAHDLALACKLDYDEDASAMLKEVQPRAQKIAEHRRKYERKREEREIKERIERVKKAREEHERAQREEEARRQSGAQYGSFPGGFPGGMPGNFPGGMPGMGGGMPGMAGMPGLNEILSDPEVLAAMQDPEVMVAFQDVAQNPANMSKYQSNPKVMNLISKLSAKFGGQA [ST13] ?
Met

Would you kindly repeat that for MISRHLQNNLMSVDPASSQAMELSDVTLIEGVGNEVMVVAGVVVLILALVLAWLSTYVADSGSNQLLGAIVSAGDTSVLHLGHVDHLVAGQGNPEPTELPHPSEGNDEKAEEAGEGRGDSTGEAGAGGGVEPSLEHLLDIQGLPKRQAGAGSSSPEAPLRSEDSTCLPPSPGLITVRLKFLNDTEELAVARPEDTVGALKSKYFPGQESQMKLIYQGRLLQDPARTLRSLNITDNCVIHCHRSPPGSAVPGPSASLAPSATEPPSLGVNVGSLMVPVFVVLLGVVWYFRINYRQFFTAPATVSLVGVTVFFSFLVFGMYGR [TMUB2] ?
Met

Would you kindly repeat that for MLLSLVLHTYSMRYLLPSVVLLGTAPTYVLAWGVWRLLSAFLPARFYQALDDRLYCVYQSMVLFFFENYTGVQILLYGDLPKNKENIIYLANHQSTVDWIVADILAIRQNALGHVRYVLKEGLKWLPLYGCYFAQHGGIYVKRSAKFNEKEMRNKLQSYVDAGTPMYLVIFPEGTRYNPEQTKVLSASQAFAAQRGLAVLKHVLTPRIKATHVAFDCMKNYLDAIYDVTVVYEGKDDGGQRRESPTMTEFLCKECPKIHIHIDRIDKKDVPEEQEHMRRWLHERFEIKDKMLIEFYESPDPERRKRFPGKSVNSKLSIKKTLPSMLILSGLTAGMLMTDAGRKLYVNTWIYGTLLGCLWVTIKA [AGPAT5] ?
Not met

Would you kindly repeat that for MVSVINTVDTSHEDMIHDAQMDYYGTRLATCSSDRSVKIFDVRNGGQILIADLRGHEGPVWQVAWAHPMYGNILASCSYDRKVIIWREENGTWEKSHEHAGHDSSVNSVCWAPHDYGLILACGSSDGAISLLTYTGEGQWEVKKINNAHTIGCNAVSWAPAVVPGSLIDHPSGQKPNYIKRFASGGCDNLIKLWKEEEDGQWKEEQKLEAHSDWVRDVAWAPSIGLPTSTIASCSQDGRVFIWTCDDASSNTWSPKLLHKFNDVVWHVSWSITANILAVSGGDNKVTLWKESVDGQWVCISDVNKGQGSVSASVTEGQQNEQ [SEC13] ?
Not met

Would you kindly repeat that for MDLWPGAWMLLLLLFLLLLFLLPTLWFCSPSAKYFFKMAFYNGWILFLAVLAIPVCAVRGRNVENMKILRLMLLHIKYLYGIRVEVRGAHHFPPSQPYVVVSNHQSSLDLLGMMEVLPGRCVPIAKRELLWAGSAGLACWLAGVIFIDRKRTGDAISVMSEVAQTLLTQDVRVWVFPEGTRNHNGSMLPFKRGAFHLAVQAQVPIVPIVMSSYQDFYCKKERRFTSGQCQVRVLPPVPTEGLTPDDVPALADRVRHSMLTVFREISTDGRGGGDYLKKPGGGG [AGPAT1] ?
Not met

Would you kindly repeat that for MSGQRVDVKVVMLGKEYVGKTSLVERYVHDRFLVGPYQNTIGAAFVAKVMSVGDRTVTLGIWDTAGSERYEAMSRIYYRGAKAAIVCYDLTDSSSFERAKFWVKELRSLEEGCQIYLCGTKSDLLEEDRRRRRVDFHDVQDYADNIKAQLFETSSKTGQSVDELFQKVAEDYVSVAAFQVMTEDKGVDLGQKPNPYFYSCCHH [RAB24] ?
Not met
